Consider the following compounds; for each one, report its pKi.
# Target Or Test System: Synaptic vesicular amine transporter (Rattus norvegicus, UniProt Q01827)
# Sequence (Q01827 whole entry): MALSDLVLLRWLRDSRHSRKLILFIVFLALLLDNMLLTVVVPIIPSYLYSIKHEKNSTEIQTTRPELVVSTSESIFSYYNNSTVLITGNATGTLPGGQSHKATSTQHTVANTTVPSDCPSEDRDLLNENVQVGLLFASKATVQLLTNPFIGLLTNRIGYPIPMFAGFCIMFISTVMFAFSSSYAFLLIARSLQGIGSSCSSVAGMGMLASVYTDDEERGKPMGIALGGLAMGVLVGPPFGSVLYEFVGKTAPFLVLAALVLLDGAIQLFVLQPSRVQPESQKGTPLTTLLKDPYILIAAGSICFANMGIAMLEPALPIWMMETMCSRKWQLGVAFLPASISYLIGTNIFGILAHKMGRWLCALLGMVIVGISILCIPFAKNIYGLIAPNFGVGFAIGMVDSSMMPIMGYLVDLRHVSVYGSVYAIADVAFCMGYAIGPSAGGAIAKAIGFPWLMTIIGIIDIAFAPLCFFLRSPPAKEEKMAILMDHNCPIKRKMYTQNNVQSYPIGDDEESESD
# Test Name: Inhibition of [3H]dopamine uptake at VMAT2 in rat striatal synaptic vesicles by scintillation spectrometry
Numbers only, as −log10 of the molar value.

[[record]]
test_smiles = "FCCOc1ccccc1CCC1CCN(CCc2ccccc2)CC1"
value_kind = "pKi"
readout_number = 7.46

[[record]]
test_smiles = "COc1ccccc1CCN1CCC(CCc2ccccc2OCCF)CC1"
value_kind = "pKi"
readout_number = 7.60


Now look at this one.
FCCOc1cccc(CCN2CCN(CCc3ccccc3)CC2)c1 yielded pKi of 7.14
